Recorded values, source the kinase profiling compilation of Christmann-Franck et al. (2016).

Target: PAK3 (human)
Assay: radiometric filter-binding kinase assay, Kinase HotSpot
Details: compound 0.5 µM; ATP 10 µM
Task for the reader: assign each of the following compounds its reported residual activity.
API: value field is a number in %; no unit string.

Please give the measured residual activity for this compound: Cn1c2ccccc2c2c3c(c4c5ccccc5n(CCC#N)c4c21)CNC3=O 122

Which residual activity is reported for this compound? O=C1C(Cl)=C(N2C(=O)CCC2=O)C(=O)c2ccccc21 104

Given the entry NC(=O)c1cccc(-c2cc(Nc3ccc(OC(F)(F)F)cc3)ncn2)c1 , report its measured residual activity. 100

// residual activity lookup, key: COc1cc2ncnc(Nc3ccc(Oc4ccccc4)cc3)c2cc1OC 98.1

I would be grateful if you could share the reported residual activity for O=C1Nc2ccc(Br)cc2/C1=C\c1cc2c([nH]1)CCCC2 . 96.4

###

Target: PIM2 (human) (UniProt Q9P1W9)
Sequence (Q9P1W9 whole entry, looked up): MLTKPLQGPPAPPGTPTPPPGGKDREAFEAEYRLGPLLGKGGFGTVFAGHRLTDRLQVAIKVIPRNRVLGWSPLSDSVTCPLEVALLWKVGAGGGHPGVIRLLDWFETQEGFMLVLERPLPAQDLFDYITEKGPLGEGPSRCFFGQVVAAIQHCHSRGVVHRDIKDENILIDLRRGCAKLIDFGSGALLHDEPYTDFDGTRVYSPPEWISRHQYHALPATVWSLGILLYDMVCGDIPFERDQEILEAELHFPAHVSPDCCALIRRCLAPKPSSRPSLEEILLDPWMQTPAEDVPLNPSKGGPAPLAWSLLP
Experiment: radiometric filter-binding kinase assay, Kinase HotSpot
Settings: compound 0.5 µM; ATP 10 µM
REPORTED_METRIC: residual activity (%)
Numbers only here, please. The scale is %.

Which residual activity value belongs to C[C@@H]1CCN(C(=O)CC#N)C[C@@H]1N(C)c1ncnc2[nH]ccc12 ? 116

Reported residual activity for O=C1c2ccccc2-c2nc3nnnn3nc21 : what is it? 92.8

Need residual activity, item CN(C)c1ccc(/C=C2\C(=O)Nc3ccccc32)cc1 82.4

Look up residual activity: Cc1cccc(-c2nc(C(C)(C)C)[nH]c2-c2ccc3c(c2)OCO3)n1 99.7

Please give the measured residual activity for this molecule: N#C/C(=C\c1ccc(O)c(O)c1)C(=O)NCc1ccccc1 97.1

# lookup: residual activity of O=C1NC(=O)c2c1c1c3ccccc3[nH]c1n1cncc21 34.4

Which residual activity is reported for this molecule? COc1ccc2c(c1)c(C1=C(c3c[nH]c4ccccc34)C(=O)NC1=O)cn2CCCN(C)C 90.5

Consider the molecule shown here: CC(C)(C)c1cc(C=C(C#N)C#N)cc(Br)c1O What is its recorded residual activity? 115

Which residual activity value belongs to O=C1Nc2ccc(Br)cc2/C1=C\c1cc2c([nH]1)CCCC2 ? 100

# query: residual activity of entry NC(=O)c1cccc(-c2cc(Nc3ccc(OC(F)(F)F)cc3)ncn2)c1 115

Which residual activity is listed for Fc1ccc(-c2nc3n(c2-c2ccncc2)CCS3)cc1 ? 121

Look at this molecule and give its reported residual activity. O=C(c1cc2cc(O)ccc2[nH]1)c1cc2cc(O)ccc2[nH]1 108

Entry under review: CCCCc1c(-c2ccc(OC)cc2)[nH]c2nccnc12 . Reported residual activity? 115

Fill in: residual activity of CS(=O)(=O)CCNCc1ccc(-c2ccc3ncnc(Nc4ccc(OCc5cccc(F)c5)c(Cl)c4)c3c2)o1 is ___ 102

What value of measured residual activity is listed for c1ccc2c(-c3ccncc3)c[nH]c2c1 ? 105

Data request, read-out residual activity, for COc1ccc(Cl)cc1NC(=O)Nc1cc(C)nc2ccccc12 99.8

// residual activity lookup, key: COc1cc2ncnc(Nc3ccc(Oc4ccccc4)cc3)c2cc1OC 107

# input molecule: COc1ccc(C(=O)Nc2sc3c(c2C(N)=O)CCCC3)cc1OC ; wanted: its residual activity 98.5

Give the measured residual activity of CN(C)CCCn1cc(C2=C(c3c[nH]c4ccccc34)C(=O)NC2=O)c2ccccc21 . 64.1
